assay: amyloid nucleation score (Sup35N fusion, yeast selection) (log enrichment); library NNK3; higher = more nucleation; inactive = no reads after selection;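 also: zero at mode of non-aggregating sequences after 7 days selection at 30°C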
parameter: amyloid nucleation score

Solved entries (count: 5):
- sequence.content: "VLVCTLVTSLTDAKFRKYFS"
  amyloid nucleation score: 0.813
- sequence.content: "LRGSRYFWDWAPSYYFVHLR"
  amyloid nucleation score: "inactive"
- sequence.content: "NFATRDNWYRVTQTLEDWIK"
  amyloid nucleation score: "inactive"
- sequence.content: "ISSIYREYLLKHGMFRKRRK"
  amyloid nucleation score: "inactive"
- sequence.content: "SCIIWKSWQV"
  amyloid nucleation score: 1.14

Suppose we examine the sequence LHNCPVDGWAAVSRSVVGRE ; what amyloid nucleation score value has been reported?
inactive

Suppose we examine the sequence MRNVVSSISRCFDMKAVQQR ; what amyloid nucleation score value has been reported?
inactive

Suppose we examine the sequence MFWCDNSGIMGADKGVALSW ; what amyloid nucleation score value has been reported?
inactive

Suppose we examine the sequence KPSSFNDAIR ; what amyloid nucleation score value has been reported?
inactive

====

assay: amyloid nucleation score (Sup35N fusion, yeast selection) (log enrichment); library NNK2; higher = more nucleation; inactive = no reads after selection
// class assignment uses amyloid nucleation score with these ranges: bin A (below -0.4), bin B (-0.4 to below 3), bin C (3 or more)

Please indicate the class for KNCFMIV based on its amyloid nucleation score.
bin A

Please indicate the class for MIDLTLIFLFLVYSD based on its amyloid nucleation score.
bin A

Please indicate the class for HWYLRSV based on its amyloid nucleation score.
bin B

Please indicate the class for SYLHNSN based on its amyloid nucleation score.
bin A

Please indicate the class for EWVYFLCSFHPSIDFLNISD based on its amyloid nucleation score.
bin C

Please indicate the class for WGDIDF based on its amyloid nucleation score.
bin B

Please indicate the class for IWEVNKVIIQYFPIAFKK based on its amyloid nucleation score.
bin C

Please indicate the class for GHAHLCSMYVVSIRLHLSMV based on its amyloid nucleation score.
bin C

Please indicate the class for RKLTIA based on its amyloid nucleation score.
bin A

Please indicate the class for SWLTRIC based on its amyloid nucleation score.
bin B

Please indicate the class for NHRKVLMVVVLAVHNMGCCI based on its amyloid nucleation score.
bin C

Please indicate the class for CGLLGVPFTKLTMLISRRMT based on its amyloid nucleation score.
bin B

Please indicate the class for SRYACVRLICQVWPLWVGSG based on its amyloid nucleation score.
bin B

Please indicate the class for MSYCNT based on its amyloid nucleation score.
bin B

Please indicate the class for YNQVYES based on its amyloid nucleation score.
bin B

Please indicate the class for CSVYVCQLSLCCSVY based on its amyloid nucleation score.
bin C

====

Please provide measured amyloid nucleation score for the entries that follow.
experiment: amyloid nucleation score (Sup35N fusion, yeast selection) (log enrichment); library NNK1; higher = more nucleation; inactive = no reads after selection
Form field (numeric): enter value without unit.

Suppose we examine the substance VIFSGVTRFHSRTCLRFVMI ; what amyloid nucleation score value has been reported?
-0.09

Suppose we examine the substance KCTENLFRHCIRLEGSTWKF ; what amyloid nucleation score value has been reported?
-1.34

Suppose we examine the substance HLPFYLCF ; what amyloid nucleation score value has been reported?
1.57

Suppose we examine the substance SYNTIIGSSCN ; what amyloid nucleation score value has been reported?
0.701

Suppose we examine the substance PRLLLGAHQSYLGACSAGYM ; what amyloid nucleation score value has been reported?
1.06

Suppose we examine the substance GLTCSKAAIKRLG ; what amyloid nucleation score value has been reported?
-0.367

Suppose we examine the substance LYGYSI ; what amyloid nucleation score value has been reported?
0.778

Suppose we examine the substance KRLRTKFYVVLYFSYMSSTL ; what amyloid nucleation score value has been reported?
-1.52

Suppose we examine the substance LFWSET ; what amyloid nucleation score value has been reported?
-0.526

Suppose we examine the substance MICKMNYQVRIPINFSYCLN ; what amyloid nucleation score value has been reported?
2.43

Suppose we examine the substance FFRIEATSVSLSPAYRLEDR ; what amyloid nucleation score value has been reported?
2.59

Suppose we examine the substance FVNFGFAGIASWHFVLMFIK ; what amyloid nucleation score value has been reported?
0.1

Suppose we examine the substance LNEHLFR ; what amyloid nucleation score value has been reported?
0.615

Suppose we examine the substance HMSWMYEWMNVTCKVNMCR ; what amyloid nucleation score value has been reported?
2.06

Suppose we examine the substance TKLVLWLVA ; what amyloid nucleation score value has been reported?
-0.429

Suppose we examine the substance FMLVAG ; what amyloid nucleation score value has been reported?
0.746

====

Please provide measured amyloid nucleation score for the entries that follow.
experiment: amyloid nucleation score (Sup35N fusion, yeast selection) (log enrichment); library NNK1; higher = more nucleation; inactive = no reads after selection
Form field (numeric): enter value without unit.

Suppose we examine the substance SECIVFYIPTYKHD ; what amyloid nucleation score value has been reported?
7.91

Suppose we examine the substance FGIPST ; what amyloid nucleation score value has been reported?
1.05

Suppose we examine the substance FTMFFPMGSVC ; what amyloid nucleation score value has been reported?
0.292

Suppose we examine the substance NSWDISRSMNVLGNRVNRFP ; what amyloid nucleation score value has been reported?
-0.765

Suppose we examine the substance TMGLSLYGV ; what amyloid nucleation score value has been reported?
-0.174

Suppose we examine the substance NWHGSLKPPYACEGALRVWR ; what amyloid nucleation score value has been reported?
6.26

Suppose we examine the substance SGMYSMYQDKT ; what amyloid nucleation score value has been reported?
-0.716

Suppose we examine the substance CKTLMLCTRICFDANQLASR ; what amyloid nucleation score value has been reported?
1.71

====

assay: amyloid nucleation score (Sup35N fusion, yeast selection) (log enrichment); library NNK3; higher = more nucleation; inactive = no reads after selection
parameter: amyloid nucleation score

Solved entries (count: 6):
- sequence.content: "FIEVYCKMGCLRYLVWGWSD"
  amyloid nucleation score: "inactive"
- sequence.content: "MLEGQSSCRVITDLARL"
  amyloid nucleation score: "inactive"
- sequence.content: "VVSMQYCLFS"
  amyloid nucleation score: 2.81
- sequence.content: "RNWKSYRYAVGRCDMGSELL"
  amyloid nucleation score: "inactive"
- sequence.content: "MFFELSLIISCFTEV"
  amyloid nucleation score: 1.42
- sequence.content: "NLDIWNLRQWSGVVYLV"
  amyloid nucleation score: 0.751

Suppose we examine the sequence YTYECRCH ; what amyloid nucleation score value has been reported?
inactive

Suppose we examine the sequence DQMTHFYYPRNRPRFAISLA ; what amyloid nucleation score value has been reported?
inactive

Suppose we examine the sequence GWELTFRSEF ; what amyloid nucleation score value has been reported?
inactive

====

test: amyloid nucleation score (Sup35N fusion, yeast selection) (log enrichment); library NNK2; higher = more nucleation; inactive = no reads after selection
Assign true (1) to entries whose amyloid nucleation score meets or exceeds -0.3; assign false (0) to the rest.

Does amyloid nucleation score meet or surpass -0.3 for NIIACMYKLEDSGRQFSMLE ?
true (1)

Does amyloid nucleation score meet or surpass -0.3 for FGPSRYTRSVFSVEQTSL ?
true (1)

Does amyloid nucleation score meet or surpass -0.3 for FYLSLLYGRSRQIGLLIYFQ ?
true (1)

Does amyloid nucleation score meet or surpass -0.3 for LRDTPLMGWYCFRSHLVTVS ?
true (1)

Does amyloid nucleation score meet or surpass -0.3 for DTRFEVNAFTIGNRYATNGS ?
false (0)

Does amyloid nucleation score meet or surpass -0.3 for VFNWTNLHYLMAQESVMGY ?
true (1)

Does amyloid nucleation score meet or surpass -0.3 for PSIRWNVIIAMSYLQS ?
true (1)

Does amyloid nucleation score meet or surpass -0.3 for EVNRAPNVSIVYRRNSGTAD ?
true (1)

Does amyloid nucleation score meet or surpass -0.3 for ICPPAWFKRVNDGGVYALNE ?
true (1)

Does amyloid nucleation score meet or surpass -0.3 for CRGVNVHDSSW ?
false (0)

Does amyloid nucleation score meet or surpass -0.3 for YLTLTYPLLCLALNNLSVVL ?
true (1)

Does amyloid nucleation score meet or surpass -0.3 for SSVQNCSVCVGGPMYREFSW ?
true (1)

Does amyloid nucleation score meet or surpass -0.3 for SCGYFITKKEH ?
false (0)

Does amyloid nucleation score meet or surpass -0.3 for CMSVGGGLHG ?
true (1)

Does amyloid nucleation score meet or surpass -0.3 for SVKCWVALAPYLGDRKDPVW ?
true (1)

Does amyloid nucleation score meet or surpass -0.3 for VYDQIYGRLANRLVHNKWRR ?
false (0)

Does amyloid nucleation score meet or surpass -0.3 for YTVPSQNKWVENLMNWRGYR ?
false (0)

Does amyloid nucleation score meet or surpass -0.3 for IYFMFVVYDSIHQE ?
true (1)

Does amyloid nucleation score meet or surpass -0.3 for VLCTRRLPLYHSSNDQ ?
true (1)

Does amyloid nucleation score meet or surpass -0.3 for GRFDSRAFTDDMTKIPMYYL ?
true (1)

Does amyloid nucleation score meet or surpass -0.3 for NYSDFVVMTRSVLFWYCDQR ?
false (0)

Does amyloid nucleation score meet or surpass -0.3 for FYSELKLNGMH ?
false (0)

Does amyloid nucleation score meet or surpass -0.3 for GSSAYITLLHYEILNLRLLC ?
true (1)

Does amyloid nucleation score meet or surpass -0.3 for FFSLSQQYSRSVIVYAKLHL ?
false (0)

Does amyloid nucleation score meet or surpass -0.3 for LSGMIGSSWAFVSLALIRYQ ?
false (0)

Does amyloid nucleation score meet or surpass -0.3 for VNDCYIILISIQALKGPICF ?
true (1)

Does amyloid nucleation score meet or surpass -0.3 for HILRRINIWGGFPCMRVSKN ?
false (0)

Does amyloid nucleation score meet or surpass -0.3 for GKPTFFMG ?
true (1)

Does amyloid nucleation score meet or surpass -0.3 for ILAITRINA ?
true (1)

Does amyloid nucleation score meet or surpass -0.3 for ISPIESSDRMGGCSLRAILP ?
false (0)

Does amyloid nucleation score meet or surpass -0.3 for GLSAKNH ?
true (1)

Does amyloid nucleation score meet or surpass -0.3 for RDMVTVVCTWEKWCCRFPDL ?
true (1)

Does amyloid nucleation score meet or surpass -0.3 for FGFWSPATVNNVRALIKDCV ?
false (0)

Does amyloid nucleation score meet or surpass -0.3 for SNEPIGTASLHDYVGPRVST ?
false (0)

Does amyloid nucleation score meet or surpass -0.3 for QWLKTVSLS ?
true (1)

Does amyloid nucleation score meet or surpass -0.3 for KYFVTNRVVWTDRVSIFGV ?
true (1)

Does amyloid nucleation score meet or surpass -0.3 for NIFFNL ?
true (1)

Does amyloid nucleation score meet or surpass -0.3 for NRNTTFLNYF ?
true (1)

Does amyloid nucleation score meet or surpass -0.3 for KRILQMDHRLLNHNSELLKR ?
false (0)

Does amyloid nucleation score meet or surpass -0.3 for NYSGLDERPVWVFWYLVFEY ?
false (0)

Does amyloid nucleation score meet or surpass -0.3 for YMCKVSPLRILSF ?
true (1)

Does amyloid nucleation score meet or surpass -0.3 for LLQKDEVRE ?
false (0)

Does amyloid nucleation score meet or surpass -0.3 for NVLSWKHMRAKGVNWFGGWV ?
true (1)

Does amyloid nucleation score meet or surpass -0.3 for VALRWTIRQWFSDVYPWSWY ?
true (1)

Does amyloid nucleation score meet or surpass -0.3 for RESARRKAYLLSKNGSNWLH ?
true (1)

Does amyloid nucleation score meet or surpass -0.3 for MLMSNFCF ?
true (1)

Does amyloid nucleation score meet or surpass -0.3 for NFDGSCKA ?
false (0)

Does amyloid nucleation score meet or surpass -0.3 for DSASNVW ?
true (1)

Does amyloid nucleation score meet or surpass -0.3 for YGVVYAYYPDQVQWVGCNE ?
true (1)

Does amyloid nucleation score meet or surpass -0.3 for VVRSRW ?
true (1)

Does amyloid nucleation score meet or surpass -0.3 for CVSVGCVESGTMICQLKLSQ ?
true (1)

Does amyloid nucleation score meet or surpass -0.3 for SKAECLMH ?
false (0)

Does amyloid nucleation score meet or surpass -0.3 for CSYWNVGYREVRMTDDDTMG ?
false (0)

Does amyloid nucleation score meet or surpass -0.3 for TLDTSYYFLTRVFNHLNISE ?
false (0)

Does amyloid nucleation score meet or surpass -0.3 for RTWAFFKAVWGIVDRTTLSN ?
false (0)

Does amyloid nucleation score meet or surpass -0.3 for RIVGRSFYMQFGRVWDFLRS ?
false (0)

Does amyloid nucleation score meet or surpass -0.3 for WKSLGNSAVVIRLAS ?
false (0)

FYI, the data here is from the supplement of paper PMC12042874.
